MEASURED_METRIC: melting point

{"RECORD_SMILES": "CCc1nc(-c2cccc(Cl)c2)c(-c2ccnc(NC3CCCC3)c2)s1", "RECORDED_MEASUREMENT": "110 to 111 °C"}
{"RECORD_SMILES": "Cc1cccc(-c2nc(-c3ccc(S(C)(=O)=O)cc3)sc2-c2ccnc(N3CCOCC3)c2)c1", "RECORDED_MEASUREMENT": "200 to 202 °C"}
{"RECORD_SMILES": "CCc1nc(-c2ccc(Cl)cc2)c(-c2ccnc(N)c2)s1", "RECORDED_MEASUREMENT": "136 to 137 °C"}

Query block: For `CCC(=O)Nc1cc(-c2sc(CCSC)nc2-c2cccc(Cl)c2)ccn1` , what is its reported melting point?
Result block: 91 to 92 °C

Query block: Also, `CSc1ccc(-c2nc(-c3cc(C)cc(C)c3)c(-c3ccnc(C)c3)s2)cc1` please.
Result block: 123 to 125 °C

Query block: Another compound: `Cc1cc(C)cc(-c2nc(NC(=O)c3ccc(C)nc3)sc2-c2ccnc(C)c2)c1`
Result block: 252 to 253 °C

Query block: Also need `Cc1cccc(-c2nc(NC(=O)c3cccnc3)sc2-c2ccnc(NC3CCCCC3)c2)c1` , thanks.
Result block: 201 to 203 °C

---

Reported values of melting point for individual entries

{"RECORD_SMILES": "CCCc1nc(-c2cccc(Cl)c2)c(-c2ccnc(NC(C)=O)c2)s1", "melting point": "144 to 145 °C"}

Query block: So what's the measured melting point for this one? `COc1ccc(C(=O)Nc2nc(-c3cccc(C)c3)c(-c3ccnc(NC4CCCCC4)c3)s2)cn1`
Result block: 191 to 192 °C

Query block: Repeat for the following molecule: `Cc1cccc(-c2nc(NC(=O)Nc3ccccc3)sc2-c2ccnc(NC3CCCC3)c2)c1`
Result block: 188 to 190 °C

Query block: Then this molecule: `Cc1cccc(-c2nc(C(=O)O)sc2-c2ccnc(C)c2)c1`
Result block: 135 to 136 °C

Query block: Thanks! And `CCCCC(=O)Nc1cc(-c2sc(CC)nc2-c2cccc(C)c2)ccn1` ?
Result block: 81 to 82 °C
